Target: T1, CD32B (FcγRII-B) (UniProt P31994 43-217, limits assumed)
T1 construct: No species or construct stated
T1 sequence (looked up): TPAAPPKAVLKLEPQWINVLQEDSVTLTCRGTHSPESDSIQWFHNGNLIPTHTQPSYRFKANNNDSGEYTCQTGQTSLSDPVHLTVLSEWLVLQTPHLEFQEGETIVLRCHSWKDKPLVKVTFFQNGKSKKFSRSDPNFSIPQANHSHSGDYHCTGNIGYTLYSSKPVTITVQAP
Assay: Table 3; relative to wild-type Fc; method not stated
Reported Endpoint: binding relative to wild-type Fc (fold)
Output: the number by itself.

These solved cases illustrate the format of a correct answer.
Binder	binding relative to wild-type Fc (fold)
Fc variant D270E G316D P396L R416G (other, UniProt P01857-1 99-330, looked up, name in EU numbering, domain: Fc region; positions are EU index; also called D270E P396L G316D R416G) EPKSCDKTHTCPPCPAPELLGGPSVFLFPPKPKDTLMISRTPEVTCVVVDVSHEEPEVKFNWYVDGVEVHNAKTKPREEQYNSTYRVVSVLTVLHQDWLNDKEYKCKVSNKALPAPIEKTISKAKGQPREPQVYTLPPSRDELTKNQVSLTCLVKGFYPSDIAVEWESNGQPENNYKTTPLVLDSDGSFFLYSKLTVDKSGWQQGNVFSCSVMHEALHNHYTQKSLSLSPGK	1.07
Fc variant F243L R292P Y300L P396L (other, UniProt P01857-1 99-330, looked up, name in EU numbering, domain: Fc region; positions are EU index) EPKSCDKTHTCPPCPAPELLGGPSVFLLPPKPKDTLMISRTPEVTCVVVDVSHEDPEVKFNWYVDGVEVHNAKTKPPEEQYNSTLRVVSVLTVLHQDWLNGKEYKCKVSNKALPAPIEKTISKAKGQPREPQVYTLPPSRDELTKNQVSLTCLVKGFYPSDIAVEWESNGQPENNYKTTPLVLDSDGSFFLYSKLTVDKSRWQQGNVFSCSVMHEALHNHYTQKSLSLSPGK	1.07

API: the following record is the query input.
Any idea what its binding relative to wild-type Fc (fold) is? The binder is Fc variant F243L P247L D270E N421K (other, UniProt P01857-1 99-330, looked up, name in EU numbering, domain: Fc region; positions are EU index) EPKSCDKTHTCPPCPAPELLGGPSVFLLPPKLKDTLMISRTPEVTCVVVDVSHEEPEVKFNWYVDGVEVHNAKTKPREEQYNSTYRVVSVLTVLHQDWLNGKEYKCKVSNKALPAPIEKTISKAKGQPREPQVYTLPPSRDELTKNQVSLTCLVKGFYPSDIAVEWESNGQPENNYKTTPPVLDSDGSFFLYSKLTVDKSRWQQGKVFSCSVMHEALHNHYTQKSLSLSPGK
0.32

Cited source: patent US20110097323A1
